# Target Or Test System: Human CD33 S128N (human, UniProt P20138 18-259)
# Sequence (P20138 18-259 S128N): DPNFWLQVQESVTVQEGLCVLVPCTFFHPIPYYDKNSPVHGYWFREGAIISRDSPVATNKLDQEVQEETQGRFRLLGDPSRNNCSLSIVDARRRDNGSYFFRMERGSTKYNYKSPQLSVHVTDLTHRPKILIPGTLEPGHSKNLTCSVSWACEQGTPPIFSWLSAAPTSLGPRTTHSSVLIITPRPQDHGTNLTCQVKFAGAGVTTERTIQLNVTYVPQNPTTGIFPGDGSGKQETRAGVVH
# Assay Overview: SPR captured Fab
pKd: −log10 of the molar value.
Readout Kind: pKd

INSERT INTO measurements (binder, readout_kind, experimental_result) VALUES
  ('ADI-11812 Fab (Fab, V domains shown, Fab fragment; also called Ab24) VH: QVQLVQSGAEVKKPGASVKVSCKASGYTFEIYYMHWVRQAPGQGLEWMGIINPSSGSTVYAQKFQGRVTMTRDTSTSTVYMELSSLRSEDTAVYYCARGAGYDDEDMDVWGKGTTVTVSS VL: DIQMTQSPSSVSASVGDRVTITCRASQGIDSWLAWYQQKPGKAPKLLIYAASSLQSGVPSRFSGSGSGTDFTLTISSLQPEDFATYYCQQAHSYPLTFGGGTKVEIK', 'pKd', 8.70),
  ('ADI-11825 Fab (Fab, V domains shown, Fab fragment; also called Ab25) VH: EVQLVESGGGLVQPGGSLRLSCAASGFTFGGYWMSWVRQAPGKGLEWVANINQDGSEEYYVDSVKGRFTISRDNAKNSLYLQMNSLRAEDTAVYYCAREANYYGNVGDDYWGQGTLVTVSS VL: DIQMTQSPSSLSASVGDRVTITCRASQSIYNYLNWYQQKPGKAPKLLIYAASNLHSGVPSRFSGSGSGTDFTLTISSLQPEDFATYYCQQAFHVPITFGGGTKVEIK', 'pKd', 8.51),
  ('ADI-11826 Fab (Fab, V domains shown, Fab fragment; also called Ab26) VH: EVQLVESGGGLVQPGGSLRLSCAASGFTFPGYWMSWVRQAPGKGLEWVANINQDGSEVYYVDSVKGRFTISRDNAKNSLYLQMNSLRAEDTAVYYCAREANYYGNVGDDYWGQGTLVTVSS VL: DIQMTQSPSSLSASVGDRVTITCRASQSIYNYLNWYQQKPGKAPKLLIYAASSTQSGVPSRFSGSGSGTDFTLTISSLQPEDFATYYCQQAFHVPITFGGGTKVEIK', 'pKd', 8.58),
  ('ADI-10164 Fab (Fab, V domains shown, Fab fragment; also called Ab18) VH: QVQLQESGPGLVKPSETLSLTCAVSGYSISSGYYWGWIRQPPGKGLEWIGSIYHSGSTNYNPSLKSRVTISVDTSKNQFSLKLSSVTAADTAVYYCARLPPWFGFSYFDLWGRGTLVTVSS VL: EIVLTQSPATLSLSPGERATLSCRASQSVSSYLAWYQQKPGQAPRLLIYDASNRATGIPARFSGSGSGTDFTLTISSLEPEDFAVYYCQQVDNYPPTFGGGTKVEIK', 'pKd', 6.55),
  ('ADI-11839 Fab (Fab, V domains shown, Fab fragment; also called Ab28) VH: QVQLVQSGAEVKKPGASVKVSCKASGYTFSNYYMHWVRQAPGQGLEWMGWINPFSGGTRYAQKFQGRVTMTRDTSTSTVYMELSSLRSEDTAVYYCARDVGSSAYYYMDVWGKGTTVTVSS VL: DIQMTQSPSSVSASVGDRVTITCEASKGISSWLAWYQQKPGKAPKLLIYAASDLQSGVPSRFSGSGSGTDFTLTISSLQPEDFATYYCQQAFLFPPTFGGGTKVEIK', 'pKd', 7.53);
